Quick list: melting point per entry.

COMPOUND	melting point
CC[C@@]1(OC(=O)C(CCC(=O)OC)NC(=O)CCC(C)C2CCC3C4C(C[C@H](O)[C@]23C)[C@@]2(C)CC[C@@H](O)CC2C[C@H]4O)C(=O)OCc2c1cc1n(c2=O)Cc2cc3ccccc3nc2-1 (stereo partly drawn)	195 to 196 °C
CC[C@@]1(OC(=O)CNC(=O)CCC(C)C2CCC3C4CCC5C[C@H](O)CC[C@]5(C)C4C[C@H](O)[C@]23C)C(=O)OCc2c1cc1n(c2=O)Cc2cc3ccccc3nc2-1 (stereo partly drawn) [Compound E2]	203 to 204 °C
CC[C@@]1(OC(=O)COC(=O)CCC(C)C2CCC3C4C(CC[C@]23C)[C@@]2(C)CC[C@@H](O)CC2C[C@@H]4O)C(=O)OCc2c1cc1n(c2=O)Cc2cc3ccccc3nc2-1 (stereo partly drawn)	229 to 230 °C
CC[C@@]1(OC(=O)COC(=O)CCC(C)C2CCC3C4C(CC[C@]23C)[C@@]2(C)CC[C@@H](O)CC2C[C@H]4O)C(=O)OCc2c1cc1n(c2=O)Cc2cc3ccccc3nc2-1 (stereo partly drawn)	228 to 229 °C
CC[C@@]1(OC(=O)C(CCC(=O)OC)NC(=O)CCC(C)C2CCC3C4CCC5C[C@H](O)CC[C@]5(C)C4C[C@H](O)[C@]23C)C(=O)OCc2c1cc1n(c2=O)Cc2cc3ccccc3nc2-1 (stereo partly drawn)	199 to 200 °C
CC[C@@]1(OC(=O)C(CCC(=O)OC)NC(=O)CCC(C)C2CCC3C4C(CC[C@]23C)[C@@]2(C)CC[C@@H](O)CC2C[C@H]4O)C(=O)OCc2c1cc1n(c2=O)Cc2cc3ccccc3nc2-1 (stereo partly drawn)	182 to 185 °C
CC[C@@]1(OC(=O)CNC(=O)CCC(C)C2CCC3C4C(CC[C@]23C)[C@@]2(C)CC[C@@H](O)CC2C[C@H]4O)C(=O)OCc2c1cc1n(c2=O)Cc2cc3ccccc3nc2-1 (stereo partly drawn)	202 to 203 °C
CC[C@@]1(OC(=O)C(CCC(=O)OC)NC(=O)CCC(C)C2CCC3C4C(CC[C@]23C)[C@@]2(C)CC[C@@H](O)CC2C[C@@H]4O)C(=O)OCc2c1cc1n(c2=O)Cc2cc3ccccc3nc2-1 (stereo partly drawn)	187 to 189 °C
CC[C@@]1(OC(=O)CNC(=O)CCC(C)C2CCC3C4C(C[C@H](O)[C@]23C)[C@@]2(C)CC[C@@H](O)CC2C[C@H]4O)C(=O)OCc2c1cc1n(c2=O)Cc2cc3ccccc3nc2-1 (stereo partly drawn) [Compound E1]	200 to 203 °C
CC[C@@]1(OC(=O)COC(=O)CCC(C)C2CCC3C4CCC5C[C@H](O)CC[C@]5(C)C4C[C@H](O)[C@]23C)C(=O)OCc2c1cc1n(c2=O)Cc2cc3ccccc3nc2-1 (stereo partly drawn)	221 to 224 °C
CC[C@@]1(OC(=O)CNC(=O)CCC(C)C2CCC3C4C(CC[C@]23C)[C@@]2(C)CC[C@@H](O)CC2C[C@@H]4O)C(=O)OCc2c1cc1n(c2=O)Cc2cc3ccccc3nc2-1 (stereo partly drawn)	209 to 211 °C
CC[C@@]1(OC(=O)COC(=O)CCC(C)C2CCC3C4C(C[C@H](O)[C@]23C)[C@@]2(C)CC[C@@H](O)CC2C[C@H]4O)C(=O)OCc2c1cc1n(c2=O)Cc2cc3ccccc3nc2-1 (stereo partly drawn)	230 to 233 °C

Sourced from paper PMC6271966
